# test.system: T1, SNTG1, Q9NSN8
# T1 sequence (Q9NSN8 52-150, limits assumed, looked up): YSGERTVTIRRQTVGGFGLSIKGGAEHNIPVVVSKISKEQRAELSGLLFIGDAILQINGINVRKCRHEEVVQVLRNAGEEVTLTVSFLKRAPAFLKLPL
# method: holdup assay
# Set-up: key: below the threshold = too weak to quantify, mostly under pKd 3.1 to 4
# run.parameters: plain residues with an end cap or a label only (N-terminal biotin on a linker: ado-ado)

>  <binder>
PEKVSNTTVV [IGSF5, Q9NSI5]

>  <pKd>
below the threshold

$$$$
>  <binder>
KAEEKPPSKV [SCN4B, Q8IWT1]

>  <pKd>
below the threshold

$$$$
>  <binder>
NISARRFTLC [FAM167B, Q9BTA0]

>  <pKd>
3.48

$$$$
>  <binder>
PKSNSSKEYV [CLDN7, O95471]

>  <pKd>
below the threshold

$$$$
>  <binder>
TFSRRPKTRV [CD226, Q15762]

>  <pKd>
below the threshold

$$$$
>  <binder>
DAAHHDESNC [FMNL3, Q8IVF7]

>  <pKd>
below the threshold

$$$$
>  <binder>
VYEVPVETKF [SLC26A3, P40879]

>  <pKd>
below the threshold

$$$$
>  <binder>
HLSTRQGTCV [ATRNL1, Q5VV63]

>  <pKd>
below the threshold

$$$$
>  <binder>
TNSKQGETTV [FZD1, Q9UP38]

>  <pKd>
4.31

$$$$

The values you see were collected from paper PMC9482650.
